Each recorded value in this set is attributed to patent US10925971B2.

- TARGET_DESC: T1, dimeric human PRLR (hPRLR.mFc; SEQ ID NO:402) (Homo sapiens, UniProt P16471)
- T1 construct: dimeric (hPRLR.mFc)
- METHOD_NOTES: Surface plasmon resonance (Biacore T200), antibody-capture format
- Format: binding
- PROTOCOL_CONDITIONS: 25° C., analyte hPRLR.mFc
MEASURED_METRIC: ka (M/s)
The reply should be a number in M/s, with the unit left off.

H1H6793P: fully human anti-PRLR antibody, human IgG1 Fc; HCVR/LCVR SEQ ID NOs 146/154 (antibody, V domains shown) VH: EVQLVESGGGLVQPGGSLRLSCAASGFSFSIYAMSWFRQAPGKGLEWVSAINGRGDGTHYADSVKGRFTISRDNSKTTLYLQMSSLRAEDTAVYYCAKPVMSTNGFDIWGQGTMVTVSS VL: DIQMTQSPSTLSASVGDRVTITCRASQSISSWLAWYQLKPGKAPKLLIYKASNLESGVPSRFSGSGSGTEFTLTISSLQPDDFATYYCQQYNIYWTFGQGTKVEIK = 229000
H1H6966N: anti-PRLR antibody, human IgG1 Fc form of H2M6966N of Table 1; HCVR/LCVR SEQ ID NOs 338/346 (antibody, V domains shown, human IgG1 Fc) VH: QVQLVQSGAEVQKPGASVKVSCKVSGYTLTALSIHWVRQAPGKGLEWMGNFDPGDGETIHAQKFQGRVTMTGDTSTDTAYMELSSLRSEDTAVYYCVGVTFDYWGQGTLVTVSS VL: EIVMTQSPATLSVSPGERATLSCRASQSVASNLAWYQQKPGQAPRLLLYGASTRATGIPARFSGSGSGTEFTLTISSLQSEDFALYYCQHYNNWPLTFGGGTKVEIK = 931000
H1H6960N: anti-PRLR antibody, human IgG1 Fc form of H2M6960N of Table 1; HCVR/LCVR SEQ ID NOs 322/330 (antibody, V domains shown, human IgG1 Fc) VH: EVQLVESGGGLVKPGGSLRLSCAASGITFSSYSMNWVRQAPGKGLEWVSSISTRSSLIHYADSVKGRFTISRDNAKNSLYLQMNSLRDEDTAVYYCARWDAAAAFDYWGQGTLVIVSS VL: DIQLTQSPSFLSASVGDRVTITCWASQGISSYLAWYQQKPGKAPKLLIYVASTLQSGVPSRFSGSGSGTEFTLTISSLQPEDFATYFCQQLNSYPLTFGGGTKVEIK = 252000
H1H6781P: fully human anti-PRLR antibody, human IgG1 Fc; HCVR/LCVR SEQ ID NOs 50/58 (antibody, V domains shown) VH: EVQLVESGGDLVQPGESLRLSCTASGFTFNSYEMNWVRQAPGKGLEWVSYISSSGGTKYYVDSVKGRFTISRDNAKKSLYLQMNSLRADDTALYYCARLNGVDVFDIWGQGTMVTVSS VL: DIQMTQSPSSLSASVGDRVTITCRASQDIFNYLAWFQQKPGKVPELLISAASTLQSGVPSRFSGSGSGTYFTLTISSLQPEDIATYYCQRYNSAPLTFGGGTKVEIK = 257000
H1H6975N: anti-PRLR antibody, human IgG1 Fc form of H2M6975N of Table 1; HCVR/LCVR SEQ ID NOs 370/378 (antibody, V domains shown, human IgG1 Fc) VH: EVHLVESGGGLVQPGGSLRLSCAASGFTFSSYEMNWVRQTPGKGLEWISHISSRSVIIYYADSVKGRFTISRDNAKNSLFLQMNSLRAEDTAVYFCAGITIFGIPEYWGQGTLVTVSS VL: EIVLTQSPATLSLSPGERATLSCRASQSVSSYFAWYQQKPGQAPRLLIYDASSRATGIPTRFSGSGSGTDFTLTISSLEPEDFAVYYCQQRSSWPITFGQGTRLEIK = 287000

Would you mind telling me what ka value was observed for H1H6976N: anti-PRLR antibody, human IgG1 Fc form of H2M6976N of Table 1; HCVR/LCVR SEQ ID NOs 386/394 (antibody, V domains shown, human IgG1 Fc) VH: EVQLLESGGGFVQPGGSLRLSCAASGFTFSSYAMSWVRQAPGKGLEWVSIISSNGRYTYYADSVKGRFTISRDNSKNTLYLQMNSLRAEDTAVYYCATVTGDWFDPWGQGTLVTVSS VL: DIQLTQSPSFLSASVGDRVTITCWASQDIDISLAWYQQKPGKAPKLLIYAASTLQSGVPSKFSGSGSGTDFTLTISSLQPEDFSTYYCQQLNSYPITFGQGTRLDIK ?
1.12e+06

Now give it for H1H6804P: fully human anti-PRLR antibody, human IgG1 Fc; HCVR/LCVR SEQ ID NOs 242/250 (antibody, V domains shown) VH: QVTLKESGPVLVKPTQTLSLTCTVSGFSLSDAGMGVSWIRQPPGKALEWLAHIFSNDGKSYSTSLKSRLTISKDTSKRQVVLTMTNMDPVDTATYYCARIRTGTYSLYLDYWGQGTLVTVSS VL: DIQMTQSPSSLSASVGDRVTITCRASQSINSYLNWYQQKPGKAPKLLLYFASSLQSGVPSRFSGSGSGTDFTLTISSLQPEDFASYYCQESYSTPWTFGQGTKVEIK too.
451000

Now give it for H1H6958N2: anti-PRLR antibody, receptor blocking, human IgG1 Fc form of H2M6958N2 of Table 1; HCVR/LCVR SEQ ID NOs 290/298 (antibody, V domains shown) VH: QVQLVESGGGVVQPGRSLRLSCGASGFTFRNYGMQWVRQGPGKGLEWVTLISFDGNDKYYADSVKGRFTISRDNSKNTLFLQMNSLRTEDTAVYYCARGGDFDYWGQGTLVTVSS VL: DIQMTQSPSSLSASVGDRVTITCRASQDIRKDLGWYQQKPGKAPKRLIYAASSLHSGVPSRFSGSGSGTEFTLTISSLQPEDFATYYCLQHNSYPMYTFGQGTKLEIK too.
422000
